# protocol_description: Compound toxicity by ATPLite (total ATP levels)
# Type: cell-based
# stated_conditions: human; three days after compound addition; 50% reduction of total ATP; numeric bounds
observed_property: CC50 at 3 days

Just so you know, measured CC50 at 3 days for C[C@@H](O)COC[C@]1(O)C2CCC1C[C@@H](S(=O)(=O)c1cc(C(=O)Nc3ccc(F)c(F)c3)ccc1Cl)C2 [Example 177] came out at > 6.25 µM

***
Just so you know, measured CC50 at 3 days for CC(=O)N(C[C@@H](C)O)C[C@]1(O)C2CCC1C[C@@H](S(=O)(=O)c1cc(C(=O)Nc3cc(F)c(F)c(F)c3)ccc1Cl)C2 [Example 126] came out at > 6.25 µM

Just so you know, measured CC50 at 3 days for COCC1(NC(=O)C[C@]2(O)C3CCC2C[C@@H](S(=O)(=O)c2cc(C(=O)Nc4cc(F)c(F)c(F)c4)ccc2Cl)C3)CC1 [Example 116] came out at > 3 µM

Just so you know, measured CC50 at 3 days for C[C@H](O)[C@@H](O)[C@@]1(O)C2CC[C@H]1C[C@H](S(=O)(=O)c1cc(C(=O)Nc3cc(F)c(F)c(F)c3)ccc1Cl)C2 (single isomer, unassigned) [Example 137] came out at > 6.25 µM

Just so you know, measured CC50 at 3 days for CN1CCC[C@@H]1C(=O)NC[C@]1(O)C2CCC1C[C@@H](S(=O)(=O)c1cc(C(=O)Nc3cc(F)c(F)c(F)c3)ccc1Cl)C2 [Example 1] came out at > 3 µM

Just so you know, measured CC50 at 3 days for CC(C)(O)CNC(=O)C[C@]1(O)C2CCC1C[C@@H](S(=O)(=O)c1cc(C(=O)Nc3cc(F)c(F)c(F)c3)ccc1Cl)C2 [Example 71] came out at > 3 µM

====

# protocol_description: Compound toxicity by ATPLite (total ATP levels)
# Type: cell-based
# stated_conditions: human; three days after compound addition; 50% reduction of total ATP; numeric bounds
observed_property: CC50 at 3 days

Consider the following illustrative entries.
Just so you know, measured CC50 at 3 days for CC(C)(O)C1CN(C(=O)C[C@]2(O)C3CCC2C[C@@H](S(=O)(=O)c2cc(C(=O)Nc4cc(F)c(F)c(F)c4)ccc2Cl)C3)C1 [Example 93] came out at > 6.25 µM

Just so you know, measured CC50 at 3 days for C[C@@H](O)[C@@H](O)[C@]1(O)C2CCC1C[C@@H](S(=O)(=O)c1cc(C(=O)Nc3cc(F)c(F)c(F)c3)ccc1Cl)C2 (racemic) [Example 4] came out at > 12.5 µM

Let's switch to this molecule now.
Just so you know, measured CC50 at 3 days for O=C(Nc1cc(F)c(F)c(F)c1)c1ccc(Cl)c(S(=O)(=O)[C@H]2C3CC[C@H]2C[C@](O)(CCCO)C3)c1 [Example 9] came out at > 6.25 µM

====

# protocol_description: Compound toxicity by ATPLite (total ATP levels)
# Assay type: cell-based
# stated_conditions: human; three days after compound addition; 50% reduction of total ATP; numeric bounds
Below: a set of entries, each annotated with reported CC50 at 3 days.

Just so you know, measured CC50 at 3 days for C[C@@H](O)CNC(=O)C[C@]1(O)C2CCC1C[C@@H](S(=O)(=O)c1cc(C(=O)Nc3ccc(F)c(F)c3)ccc1Cl)C2 came out at > 12.5 µM

***
Just so you know, measured CC50 at 3 days for COCCNC(=O)C[C@]1(O)C2CCC1C[C@@H](S(=O)(=O)c1cc(C(=O)Nc3cc(F)c(F)c(F)c3)ccc1Cl)C2 came out at > 6.25 µM

Just so you know, measured CC50 at 3 days for C/C=C/C(=O)NC[C@]1(O)C2CCC1C[C@@H](S(=O)(=O)c1cc(C(=O)Nc3cc(F)c(F)c(F)c3)ccc1Cl)C2 came out at > 3 µM

# credit: patent US11596611B2
